Property: normalized growth; scope: individual molecules
# ASSAY REMARKS: chemical genetic growth profiling, strain panel (AID 1159580);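 note: tested at 20 µM; growth read once vehicle control cultures reached saturation at 30 °C; 1 = growth at the plate median or of vehicle wells; lower values mean less growth of the strain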
# TEST CONDITIONS: S. cerevisiae deletion strains, growth OD, locus YHR079C, strain IRE1, active compounds read low
Among all 5,500 compounds or so, about 2,000 (36%) were called active. About 18% were inconclusive and are not listed. The list shows a part of the results.
MEASUREMENT TYPE: normalized growth

MOLECULE	OBSERVED MEASUREMENT
C=C(C)[C@H]1Cc2c(ccc3c2O[C@@H]2COc4cc(OC)c(OC)cc4[C@@H]2C3=O)O1	0.95 (inactive)
CC1=CC2C(C(C)C)CCC(C)(O)C2CC1 (stereo unspecified)	0.918 (inactive)
CN1CCN(CCCN2c3ccccc3Sc3ccc(C(F)(F)F)cc32)CC1	0.961 (inactive)
COc1cc2c(cc1OC)[C@@H]1C(=O)c3ccc4c(c3O[C@@H]1CO2)CC(C(C)C)O4 (stereo partly specified)	1.07 (inactive)
O=C(c1cc2c(s1)-c1ccccc1CC2)N1CCN(Cc2ccccc2)CC1	0.971 (inactive)
CC(=O)O[C@H]1CC[C@]2(C)C3CC[C@@]4(C)C(CC5O[C@@]6(CCC(C)CO6)[C@@H](C)C54)C3CC[C@@H]2C1 (stereo partly specified)	1.01 (inactive)
O=c1[nH]cnc2c1ncn2C1O[C@H](CO)[C@@H](O)[C@H]1O (stereo partly specified)	0.978 (inactive)
CCCCCN(CCCCC)C(=O)C(CCC(=O)O)NC(=O)c1ccc(Cl)c(Cl)c1 (stereo unspecified)	0.986 (inactive)
O1[As]2O[As]3O[As]1O[As](O2)O3	0.974 (inactive)
COc1ccc([C@H]2COc3c(ccc(O)c3OC)C2)c(OC)c1O	1.02 (inactive)
CCCCc1nc(Cl)c(CO)n1Cc1ccc(-c2ccccc2-c2nn[nH]n2)cc1	0.969 (inactive)
CN1CCN(CCC=C2c3ccccc3Sc3ccc(S(=O)(=O)N(C)C)cc32)CC1	0.98 (inactive)
COc1cc(NS(=O)(=O)c2ccc(N)cc2)ncn1	0.97 (inactive)
CC(NCCC(c1ccccc1)c1ccccc1)c1ccccc1 (stereo unspecified)	0.982 (inactive)
NC(=O)NO	0.981 (inactive)
NCCNCCNCCN	1.02 (inactive)

* * *

# ASSAY REMARKS: chemical genetic growth profiling, strain panel (AID 1159580);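 note: tested at 20 µM; growth read once vehicle control cultures reached saturation at 30 °C; 1 = growth at the plate median or of vehicle wells; lower values mean less growth of the strain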
# TEST CONDITIONS: S. cerevisiae deletion strains, growth OD, locus YOR265W, strain rbl2, active compounds read low
The whole screen tested about 5,500 compounds, of which about 2,000 (36%) were called active. Roughly 18% stayed inconclusive and do not appear here. The list shows a part of the results. *1 amine or outer side, *2 acyl side, *3 side chain or, on linkers, in order; H or OH if unused. Where a SMILES comes first, the peptide text is derived from it. Bridges are numbered along the chain shown (N, C = ends). [ ]: non-standard residue; d: D form. The star is where a group is joined. ξ: configuration not given here. ΔAla(E,3-NHCONH2) = NC(=O)N/C=C(/N)C(=O)O; X2 = NC1=NCCC(C(N[*:1])C(=O)[*:2])N1; ξβ3hOrn = NCCCC(N)CC(=O)*; Dap = NC[CH](N)C(=O)O

COMPOUND	normalized growth
CN1C(=O)CCS(=O)(=O)C1c1ccc(Cl)cc1 (centres undefined)	0.982
COc1ccc(C(=O)c2ccccc2)c(O)c1O	0.973
NCCCC(N)CC(=O)NCC1NC(=O)C(CO)NC(=O)C(N)CNC(=O)C(C2CCN=C(N)N2)NC(=O)/C(=C\NC(N)=O)NC1=O (stereo not drawn) (H-[Dap]S[Dap](ξβ3hOrn)[ΔAla(E,3-NHCONH2)][X2]; lactam 1-C; configuration not given here)	1.02
COc1c2c(cc3c1OCO3)C13C=C[C@H](OC)CC1N(C2)CC3O (some centres undefined)	0.99
CCOc1ccc(NC(C)=O)cc1	1.01
C=C(C)[C@@H]1CC[C@]2(CO)CC[C@]3(C)[C@H](CCC4[C@@]5(C)CC[C@H](O)C(C)(C)C5CC[C@]43C)C12 (some centres undefined)	1.02
CCOc1ccc(C(=O)c2ccc(O)c(O)c2O)cc1	0.913
CC1=NN(c2ccccc2)C(=O)C1	0.988
CCN(CC)CCNC(=O)c1cc(Cl)c(N)cc1OC	0.993
